B1: LINE1-full (parent)
chain: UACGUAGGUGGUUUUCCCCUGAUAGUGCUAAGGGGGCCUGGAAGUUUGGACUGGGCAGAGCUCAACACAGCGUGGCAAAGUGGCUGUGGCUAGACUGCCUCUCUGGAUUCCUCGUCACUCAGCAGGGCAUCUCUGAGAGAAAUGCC

Variants of: B1
Test: self-cleavage, relative activity (ratio to wild type); higher = more cleavage; in vitro, sequencing; the parent is a self-cleaving ribozyme
measure: self-cleavage
Form rule: numeric answer, no unit written next to it.

Below, each entry is followed by its recorded self-cleavage result.
UACGUAGGUGGUUUUCCCCUGAUAGUGCUAAGGGGGCCUGGAAGUUUGGACUGGGCAGAGCUCAACACAGCGUGGCAAAGUGGCUGUGGCUAGACAACCUCUCUGGAUUCCUCGUCACUCAGCAGGGCAUCUCUGAGAGAAAUGCC [U96A G97A] | 0.09
UACGUAGGUGGUUUUCCCCUGAUAGUGCUAAGGGGGCCUGGAAGUGUGGACUGGGCAGAGCUCAACACAGCGGGGCAAAGUGGCUGUGGCUAGACUGCCUCUCUGGAUUCCUCGUCACUCAGCAGGGCAUCUCUGAGAGAAAUGCC [U46G U73G] | 1.5
UACGUAGGUGGUUUUCCCCUGAUAGUGCUAAGGGGGCCUGGAAGUUUGGAUUGGGCAGAGCUCUACACAGCGUGGCAAAGUGGCUGUGGCUAGACUGCCUCUCUGGAUUCCUCGUCACUCAGCAGGGCAUCUCUGAGAGAAAUGCC [C51U A64U] | 0.46
UACGUAGGUGGUUUUCCCCCGAUGGUGCUAAGGGGGCCUGGAAGUUUGGACUGGGCAGAGCUCAACACAGCGUGGCAAAGUGGCUGUGGCUAGACUGCCUCUCUGGAUUCCUCGUCACUCAGCAGGGCAUCUCUGAGAGAAAUGCC [U20C A24G] | 1.11
UACGUAGGUGGUUUUCCCCUGAUAGUGCUAGGGGGGCCUGGAAGUUUGGACUGGGCAGAGCUCAACACAGCGUGGCAAAGUGGCUGUGGCUAGACUGCCUCUCUGGAUUCCUCGUCACUCAGCAGGGCAUCUCAGAGAGAAAUGCC [A31G U134A] | 0.45

Switching to the query record.
Value lookup for self-cleavage; key = UACGUAGGUGGUCUUCCCCUGAUAGUGCUAAGGGGGCCUUGAAGUUUGGACUGGGCAGAGCUCAACACAGCGUGGCAAAGUGGCUGUGGCUAGACUGCCUCUCUGGAUUCCUCGUCACUCAGCAGGGCAUCUCUGAGAGAAAUGCC [U13C G40U]
1.87
